The entries below come with measured pIC50 values attached.
- system-under-test: Aurora-B (h) (Homo sapiens, UniProt Q96GD4)
- Sequence (Q96GD4 whole entry): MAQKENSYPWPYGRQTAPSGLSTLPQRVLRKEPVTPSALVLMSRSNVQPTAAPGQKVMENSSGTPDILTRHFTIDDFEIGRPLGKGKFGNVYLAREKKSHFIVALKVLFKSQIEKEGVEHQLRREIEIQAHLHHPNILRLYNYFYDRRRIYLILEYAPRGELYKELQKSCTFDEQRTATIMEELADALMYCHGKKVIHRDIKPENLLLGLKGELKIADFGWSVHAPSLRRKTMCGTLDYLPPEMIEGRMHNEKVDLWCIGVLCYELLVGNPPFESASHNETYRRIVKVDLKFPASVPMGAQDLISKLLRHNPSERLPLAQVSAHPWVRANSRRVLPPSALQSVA
Bear in mind: pIC50 is minus log10 of a mol/L concentration; give just that figure.

Some entries whose results are on file:
[
  {
    "molecule": "N#Cc1ccc(N2CCC(Nc3nc(Nc4ccc5c(c4)nnn5CC4CC4)ncc3Cl)CC2)nc1 [Example 60]",
    "system-under-test": "Aurora-B (h) (Homo sapiens, UniProt Q96GD4)",
    "recorded-metric": "pIC50",
    "observed-measurement": 6.67
  },
  {
    "molecule": "Cc1cnc2cc(Nc3ncc(Cl)c(NC4CCN(c5ccc(C#N)nn5)CC4)n3)ccn12 [Example 12]",
    "system-under-test": "Aurora-B (h) (Homo sapiens, UniProt Q96GD4)",
    "recorded-metric": "pIC50",
    "observed-measurement": 6.94
  },
  {
    "molecule": "CC(C)(O)Cc1cn2cc(Nc3ncc(Cl)c(NC4CCN(c5ccc(C#N)cn5)CC4)n3)ccc2n1 [Example 73]",
    "system-under-test": "Aurora-B (h) (Homo sapiens, UniProt Q96GD4)",
    "recorded-metric": "pIC50",
    "observed-measurement": 7.89
  },
  {
    "molecule": "CC(C)(O)c1cnc2cc(Nc3ncc(Cl)c(NC4CCN(c5ccc(C#N)cn5)CC4)n3)ccn12 [Example 68]",
    "system-under-test": "Aurora-B (h) (Homo sapiens, UniProt Q96GD4)",
    "recorded-metric": "pIC50",
    "observed-measurement": 6.65
  },
  {
    "molecule": "CC(C)(O)Cc1nnc2cc(Nc3ncc(Cl)c(NC4CCN(c5ccc(C#N)cn5)CC4)n3)ccn12 [Example 74]",
    "system-under-test": "Aurora-B (h) (Homo sapiens, UniProt Q96GD4)",
    "recorded-metric": "pIC50",
    "observed-measurement": 7.34
  },
  {
    "molecule": "CC(O)Cn1cnc2cc(Nc3ncc(Cl)c(NC4CCN(c5ccc(C#N)cn5)CC4)n3)ccc21 (stereo not drawn) [Example 61]",
    "system-under-test": "Aurora-B (h) (Homo sapiens, UniProt Q96GD4)",
    "recorded-metric": "pIC50",
    "observed-measurement": 7.30
  },
  {
    "molecule": "CCC1CN(c2ccc(C#N)nn2)CCC1Nc1nc(Nc2ccn3c(C)cnc3c2)ncc1Cl (stereo not drawn) [Example 3]",
    "system-under-test": "Aurora-B (h) (Homo sapiens, UniProt Q96GD4)",
    "recorded-metric": "pIC50",
    "observed-measurement": 6.99
  },
  {
    "molecule": "CC(C)(O)Cc1nnc2cc(Nc3ncc(Cl)c(NC4CCN(c5ccc(C#N)nn5)CC4)n3)ccn12 [Example 75]",
    "system-under-test": "Aurora-B (h) (Homo sapiens, UniProt Q96GD4)",
    "recorded-metric": "pIC50",
    "observed-measurement": 6.74
  }
]

Here's the next entry for you.
Tested system Aurora-B (h) (Homo sapiens, UniProt Q96GD4); pIC50 recorded for CCC1CN(c2ccc(C#N)cn2)CCC1Nc1nc(Nc2ccn3c(C)cnc3c2)ncc1Cl (stereo not drawn) [Example 2] was 7.34

Values compiled from patent US10683297B2.
